Measured Target: Zap-70 (Homo sapiens, UniProt P43403)
Construct: Kinases are expressed as either kinase domains or full length constructs; made in house
Sequence (P43403 1-619): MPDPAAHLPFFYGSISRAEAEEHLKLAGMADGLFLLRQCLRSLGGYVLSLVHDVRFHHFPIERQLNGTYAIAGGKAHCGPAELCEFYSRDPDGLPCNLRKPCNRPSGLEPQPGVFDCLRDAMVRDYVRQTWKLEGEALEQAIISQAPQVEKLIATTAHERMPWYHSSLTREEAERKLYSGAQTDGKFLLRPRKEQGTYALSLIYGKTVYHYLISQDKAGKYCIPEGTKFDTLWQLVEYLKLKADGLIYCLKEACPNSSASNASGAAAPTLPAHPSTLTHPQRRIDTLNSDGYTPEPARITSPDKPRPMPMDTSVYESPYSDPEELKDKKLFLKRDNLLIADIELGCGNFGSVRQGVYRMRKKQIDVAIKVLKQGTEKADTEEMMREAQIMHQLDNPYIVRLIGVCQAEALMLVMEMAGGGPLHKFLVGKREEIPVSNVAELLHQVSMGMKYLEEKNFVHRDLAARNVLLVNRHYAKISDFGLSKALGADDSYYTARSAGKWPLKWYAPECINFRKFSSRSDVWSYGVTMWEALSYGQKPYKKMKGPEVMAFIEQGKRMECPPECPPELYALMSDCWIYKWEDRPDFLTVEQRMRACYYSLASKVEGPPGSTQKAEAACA
Assay Comment: Kinase inhibition assay (33P transfer), Zap-70
Format: biochemical
Details: read-out: Zap-1
// reported IC50 per item

1. COC(=O)Cc1cccc(Nc2ncnc(-n3c(NCc4ccc(OC)cc4)nc4ccccc43)n2)c1 [Compound 548] ... > 9.08 µM
2. CN(c1cccc(Cl)c1)c1ncnc(Nc2cccc(Br)c2)n1 [Compound 707] ... > 11.5 µM
3. COc1cc(Nc2ncnc(-n3c(NCc4ccccc4C)nc4ccccc43)n2)cc(OC)c1OC [Compound 511] ... > 9.04 µM
4. CC(=O)c1ccc(Nc2ncnc(Nc3ccc4c(cnn4Cc4ccccc4)c3)n2)cc1 [Compound 730] ... 0.919 to 5.51 µM
5. COc1cc(Nc2ncnc(-n3c(NCc4cccc([N+](=O)[O-])c4)nc4ccccc43)n2)cc(OC)c1OC [Compound 572] ... > 8.51 µM

For reference, reported IC50 for COc1cc(Nc2ncnc(Nc3cc(F)cc(C(F)(F)F)c3)n2)cc(OC)c1OC [Compound 632] stands at > 10.2 µM

Just so you know, measured IC50 for COc1cc(Nc2ncnc(-c3ccc(NCCCO)nc3)n2)cc(OC)c1OC [Compound 497] came out at > 10.9 µM

Ref: patent US7074789B2
